Overview of recorded residual activity for various molecules
molecular target: HIPK3 (human); experiment: radiometric filter-binding kinase assay; details: compound 10.0 µM
READOUT LABEL: residual activity (%)

• O=C(O)c1cc(N=Nc2ccc(S(=O)(=O)Nc3ccccn3)cc2)ccc1O = 103
• O=c1c(O)c(-c2ccc(O)c(O)c2)oc2cc(O)c(O)c(O)c12 = 55
• CNc1nc(-c2ccc3c(N)n[nH]c3c2)cc(N2C[C@@H](C(=O)NC3CCCCC3)CC[C@H]2C)n1 = 103
• Cn1nc(Nc2ccc(F)cc2)c2c(N)ncnc21 = 136
• O=C(N[C@@H](COc1ccc2[nH]c(=O)[nH]c2c1)c1ccccc1)c1cccn(Cc2ccc(F)c(F)c2)c1=O = 91
• CC1=C(CO)C(=O)O[C@@H]([C@@H](C)[C@H]2CC[C@H]3[C@@H]4C[C@H]5O[C@]56[C@@H](O)C=CC(=O)[C@]6(C)C4CC[C@]23C)C1 (stereo not given in full) = 58
• CCNc1nc(Nc2cc(F)c(C(=O)N3CCOCC3)cc2OC)ncc1C(F)(F)F = 98
• NC(=O)c1cc(-c2ccnc(NC3CCCCC3)c2)nc(N2CCNCC2)c1 = 101
• COc1cc2ncn(-c3cc(OCc4ccccc4S(C)(=O)=O)c(C#N)s3)c2cc1OC = 61
• N#Cc1c(O)c2c(-c3ccc(-c4ccccc4O)cc3)csc2[nH]c1=O = 97
• O=C(NOC[C@H](O)CO)c1ccc(F)c(F)c1Nc1ccc(I)cc1Cl = 107
• Oc1ccc(/C=C/c2cc(O)cc(O)c2)cc1 = 41
• O=C(NOCC(O)CO)c1ccc(F)c(F)c1Nc1ccc(I)cc1Cl (stereo not given) = 101
• CCCC(CCC)C(=O)O = 89
• O=S(=O)(c1ccc(F)c2nonc12)N1CCN(c2ncc(C(F)(F)F)cc2Cl)CC1 = 101
• CCOC(=O)c1ccc(N2NC(=O)/C(=C/c3ccc([N+](=O)[O-])o3)C2=O)cc1 = 103
• CCCCCc1ccc(/C=C/[C@H](O)[C@@H](CO)NC)cc1 = 102
• C=CC(=O)N1CCC[C@@H](n2nc(-c3ccc(Oc4ccccc4)cc3)c3c(N)ncnc32)C1 = 110
• NS(=O)(=O)OC[C@@H]1C[C@@H](n2ccc3c(N[C@H]4CCc5ccccc54)ncnc32)C[C@@H]1O = 89
• FC(F)(F)c1ccc(-c2ccc(Oc3cncc4sc(-c5nn[nH]n5)cc34)cc2)cc1 = 10
• NC(=O)c1ccc(-c2ccc(Oc3cncc4sc(-c5nn[nH]n5)cc34)cc2)cc1 = 10
• NCC(=O)Nc1ccc(-n2nc(C(F)(F)F)cc2-c2ccc3c(ccc4ccccc43)c2)cc1 = 64
• Cc1ccc2c(c1)C(=O)[C@@]1(O)CCN(c3ccccc3)C1=N2 = 103
• NC1(c2ccc(-c3nc4ccn5c(=O)[nH]nc5c4cc3-c3ccccc3)cc2)CCC1 = 100
• Cc1nc(-c2ccc(OCC(C)C)c(C#N)c2)sc1C(=O)O = 119
• CC(C)C[C@H](NC(=O)CNC(=O)c1cc(Cl)ccc1Cl)B1OC(=O)CC(CC(=O)O)(C(=O)O)O1 (stereo not given in full) = 118
• COC(=O)/C=C/C(=O)OC = 81
• Cc1ccc(-c2ccc3c(ccc4sc5c(c43)NC[C@@H](C)NC5=O)n2)cn1 = 96
• c1ccc2c(-c3cnn4cc(-c5ccc(N6CCNCC6)cc5)cnc34)ccnc2c1 = 90
• Cc1cccc(Nc2nn(C)c3ncnc(N)c23)c1 = 138
• NC(=O)c1c(NC(=O)C2CC2)sc2c1CCCC2 = 102
• NC(=O)c1cc2c(-c3cccc(-c4ccccc4)c3)cnc(N)c2s1 = 19
• COc1ccc2c(c1)c1c3c(c4c5ccccc5n(C)c4c1n2CC(O)CN(C)C)C(=O)NC3=O (stereo not given) = 59
• Cc1ccc(Sc2cnc(Nc3cccc(Br)n3)s2)cc1C(=O)N1CCN(C(=O)CN)CC1 = 17
• Cc1ccc(=O)n(-c2ccccc2)c1 = 96
• O=C(Nc1ccccc1-c1cn2c(CN3CCNCC3)csc2n1)c1cnc2ccccc2n1 = 73
• N#Cc1c(C2CCNCC2)cc(-c2c(O)cccc2OCC2CC2)nc1N = 79
• CN1C(=O)[C@@H](Cc2c[nH]c3ccccc23)NC1=S = 102
• CC(C)(C#N)c1ccc(N2C(=O)OCc3cnc4ccc(-c5cnc6ccccc6c5)cc4c32)cc1 = 94
• CCn1c(-c2nonc2N)nc2cncc(CNC3CCNCC3)c21 = 84
